Measured inhibition values are reported for all entries that follow.
target: Tyrosine-protein kinase Lck (Homo sapiens); test: Inhibition of protein kinase p56 at 10 uM
Reply numerically in %, unit not repeated.

Asked: Tell me its inhibition given Cn1sc(=O)n(Cc2ccccc2)c1=O as the entry.
Given back: 35

Asked: Tell me its inhibition given O=c1sn(Cc2ccccc2)c(=O)n1Cc1ccccc1 as the entry.
Given back: 27

###

target: Epidermal growth factor receptor (Homo sapiens) (UniProt P00533); assay: Inhibition of EGF tyrosine kinase at 10 uM
Sequence (P00533 whole entry): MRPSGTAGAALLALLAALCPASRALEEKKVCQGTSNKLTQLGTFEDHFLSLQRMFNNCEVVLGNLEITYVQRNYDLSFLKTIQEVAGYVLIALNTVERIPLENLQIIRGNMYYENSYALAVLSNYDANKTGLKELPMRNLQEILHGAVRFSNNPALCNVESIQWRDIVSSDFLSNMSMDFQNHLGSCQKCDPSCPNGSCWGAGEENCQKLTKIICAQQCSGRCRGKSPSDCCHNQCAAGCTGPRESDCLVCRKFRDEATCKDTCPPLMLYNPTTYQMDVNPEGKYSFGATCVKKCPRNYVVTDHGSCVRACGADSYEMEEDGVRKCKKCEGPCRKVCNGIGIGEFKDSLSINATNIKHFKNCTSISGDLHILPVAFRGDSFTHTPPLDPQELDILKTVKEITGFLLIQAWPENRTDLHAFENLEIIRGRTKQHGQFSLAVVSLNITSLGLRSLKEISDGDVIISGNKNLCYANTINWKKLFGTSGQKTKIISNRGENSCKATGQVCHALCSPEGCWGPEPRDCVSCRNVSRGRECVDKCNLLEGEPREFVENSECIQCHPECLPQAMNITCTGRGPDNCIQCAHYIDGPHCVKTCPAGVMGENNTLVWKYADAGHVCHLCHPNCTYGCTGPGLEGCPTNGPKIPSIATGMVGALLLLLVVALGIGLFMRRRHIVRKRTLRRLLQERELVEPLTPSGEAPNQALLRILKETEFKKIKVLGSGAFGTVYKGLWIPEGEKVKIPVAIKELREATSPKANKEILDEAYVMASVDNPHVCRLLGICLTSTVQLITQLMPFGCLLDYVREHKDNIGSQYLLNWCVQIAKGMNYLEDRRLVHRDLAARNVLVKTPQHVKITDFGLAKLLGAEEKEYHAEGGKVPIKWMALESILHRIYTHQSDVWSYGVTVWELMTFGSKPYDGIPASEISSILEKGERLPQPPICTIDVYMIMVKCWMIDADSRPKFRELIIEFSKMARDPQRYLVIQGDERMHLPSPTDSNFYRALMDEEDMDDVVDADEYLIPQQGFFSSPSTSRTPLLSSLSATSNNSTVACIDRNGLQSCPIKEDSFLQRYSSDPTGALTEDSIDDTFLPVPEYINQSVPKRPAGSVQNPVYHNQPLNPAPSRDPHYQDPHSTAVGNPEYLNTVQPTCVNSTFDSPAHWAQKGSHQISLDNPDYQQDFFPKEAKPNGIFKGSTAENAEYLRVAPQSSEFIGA
reported-metric: inhibition (%)
Reply numerically in %, unit not repeated.

Example cases with answers are listed next.
chemical-smiles: CCn1sc(=O)n(-c2ccc([N+](=O)[O-])cc2)c1=O
inhibition [%]: 40

chemical-smiles: CCOC(=O)Cn1c(=O)sn(C)c1=O
inhibition [%]: 19

chemical-smiles: Cn1sc(=O)n(-c2ccc(C(F)(F)F)cc2)c1=O
inhibition [%]: 17

Below: the item to evaluate.
Asked: Tell me its inhibition given Cn1sc(=O)n(Cc2ccccc2)c1=O as the entry.
Given back: 25

###

target: Dual specificity mitogen-activated protein kinase kinase 1 (Homo sapiens) (UniProt Q02750); assay: Inhibition of MEK1K at 10 uM
Sequence (Q02750 whole entry): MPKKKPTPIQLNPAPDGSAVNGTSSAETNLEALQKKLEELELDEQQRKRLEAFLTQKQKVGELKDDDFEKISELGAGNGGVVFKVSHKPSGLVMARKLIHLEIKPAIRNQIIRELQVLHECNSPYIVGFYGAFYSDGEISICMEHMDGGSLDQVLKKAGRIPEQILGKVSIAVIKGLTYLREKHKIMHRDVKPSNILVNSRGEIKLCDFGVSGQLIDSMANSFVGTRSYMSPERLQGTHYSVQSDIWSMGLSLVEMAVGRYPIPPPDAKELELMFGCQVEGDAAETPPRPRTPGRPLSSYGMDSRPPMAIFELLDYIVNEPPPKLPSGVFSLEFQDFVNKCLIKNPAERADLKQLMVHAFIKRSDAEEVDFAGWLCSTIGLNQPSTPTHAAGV
reported-metric: inhibition

Example cases with answers are listed next.
chemical-smiles: CCn1sc(=O)n(-c2ccc([N+](=O)[O-])cc2)c1=O
reported-metric: inhibition
result: < 10%
//
chemical-smiles: CCn1c(=O)sn(C2CCCCC2)c1=O
reported-metric: inhibition
result: < 10%
//
chemical-smiles: O=c1sn(Cc2ccccc2)c(=O)n1Cc1ccccc1
reported-metric: inhibition
result: < 10%
//
chemical-smiles: CCOC(=O)Cn1c(=O)sn(C)c1=O
reported-metric: inhibition
result: 19%
//
chemical-smiles: Cn1sc(=O)n(Cc2ccccc2)c1=O
reported-metric: inhibition
result: < 10%

Below: the item to evaluate.
Asked: Tell me its inhibition given Cn1sc(=O)n(-c2ccc(C(F)(F)F)cc2)c1=O as the entry.
Given back: < 10%

###

biological target: Glycogen synthase kinase-3 (Oryctolagus cuniculus); experiment: Inhibition of rabbit GSK3
reported-metric: IC50

Example cases with answers are listed next.
chemical-smiles: O=C1CCC(=O)C1
IC50: > 100 µM

chemical-smiles: O=C1CSC(=S)N1CCc1ccccc1
IC50: 35 µM

chemical-smiles: O=C1CNC(=O)N1
IC50: 100 µM

chemical-smiles: O=C1CSC(=O)N1
IC50: 100 µM

chemical-smiles: O=C(Cn1c(=O)n(-c2ccccc2)c(=O)n1CC(=O)c1ccccc1)c1ccccc1
IC50: 100 µM

Asked: Tell me its IC50 given Cn1sc(=O)n(-c2ccc(F)cc2)c1=O as the entry.
Given back: 4 µM

Asked: Tell me its IC50 given CCn1c(=O)sn(C2CCCCC2)c1=O as the entry.
Given back: 10 µM

Asked: Tell me its IC50 given COc1ccc(CCN2C(=O)CSC2=S)cc1 as the entry.
Given back: 100 µM

Asked: Tell me its IC50 given CCn1sc(=O)n(CC)c1=O as the entry.
Given back: 25 µM

Asked: Tell me its IC50 given O=C1C=CC(=O)N1CCCCCc1ccccc1 as the entry.
Given back: 3 µM

Asked: Tell me its IC50 given O=C(O)CN1C(=O)CSC1=S as the entry.
Given back: 100 µM

Asked: Tell me its IC50 given NN1C(=O)CSC1=S as the entry.
Given back: 100 µM

Asked: Tell me its IC50 given CCn1sc(=O)n(-c2ccccc2)c1=O as the entry.
Given back: 6 µM

Asked: Tell me its IC50 given Cn1sc(=O)n(-c2ccccc2)c1=O as the entry.
Given back: 2 µM

###

Measured inhibition values are reported for all entries that follow.
target: Mitogen-activated protein kinase; ERK1/ERK2 (Homo sapiens) (UniProt P27361+P28482); test: Inhibition of MAPK at 10 uM; format: protein assay
Sequence (P27361 whole entry, looked up): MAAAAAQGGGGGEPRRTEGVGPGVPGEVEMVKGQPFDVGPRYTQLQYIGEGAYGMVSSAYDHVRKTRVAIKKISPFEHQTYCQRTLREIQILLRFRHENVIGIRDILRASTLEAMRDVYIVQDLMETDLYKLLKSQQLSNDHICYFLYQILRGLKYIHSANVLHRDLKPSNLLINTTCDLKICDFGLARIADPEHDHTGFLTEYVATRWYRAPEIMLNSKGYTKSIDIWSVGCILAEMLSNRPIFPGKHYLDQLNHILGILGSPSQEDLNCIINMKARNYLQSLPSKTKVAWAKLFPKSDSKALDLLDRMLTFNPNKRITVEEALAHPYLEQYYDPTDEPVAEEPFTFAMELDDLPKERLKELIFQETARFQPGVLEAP
Sequence (P28482 whole entry, looked up): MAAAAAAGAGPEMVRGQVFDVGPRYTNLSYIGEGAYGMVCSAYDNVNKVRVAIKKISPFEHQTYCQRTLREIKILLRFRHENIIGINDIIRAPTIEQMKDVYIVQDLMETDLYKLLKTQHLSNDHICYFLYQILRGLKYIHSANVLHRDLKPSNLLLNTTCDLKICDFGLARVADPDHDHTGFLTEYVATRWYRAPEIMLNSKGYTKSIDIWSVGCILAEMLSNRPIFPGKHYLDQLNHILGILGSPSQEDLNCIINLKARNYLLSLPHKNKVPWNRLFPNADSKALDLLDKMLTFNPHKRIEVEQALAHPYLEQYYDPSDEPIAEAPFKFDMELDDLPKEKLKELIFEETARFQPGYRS

Example cases with answers are listed next.
chemical-smiles: CCn1sc(=O)n(-c2ccc([N+](=O)[O-])cc2)c1=O
inhibition: 10%

chemical-smiles: Cn1sc(=O)n(-c2ccc(C(F)(F)F)cc2)c1=O
inhibition: < 10%

chemical-smiles: Cn1sc(=O)n(Cc2ccccc2)c1=O
inhibition: < 10%

chemical-smiles: O=c1sn(Cc2ccccc2)c(=O)n1Cc1ccccc1
inhibition: < 10%

Asked: Tell me its inhibition given CCn1c(=O)sn(C2CCCCC2)c1=O as the entry.
Given back: < 10%

Asked: Tell me its inhibition given CCOC(=O)Cn1c(=O)sn(C)c1=O as the entry.
Given back: < 10%

###

target: Glycogen synthase kinase-3 (Oryctolagus cuniculus); assay: Inhibition of rabbit GSK3
Measured IC50 values are reported for all entries that follow.

Example cases with answers are listed next.
chemical-smiles: CCOC(=O)Cn1c(=O)sn(C)c1=O
assayed-target: Glycogen synthase kinase-3 (Oryctolagus cuniculus)
result: 2000 nM
--
chemical-smiles: O=C1CCC(=O)N1Cc1ccccc1
assayed-target: Glycogen synthase kinase-3 (Oryctolagus cuniculus)
result: > 50000 nM

Below: the item to evaluate.
Asked: Tell me its IC50 given Cn1sc(=O)n(-c2ccc(Br)cc2)c1=O as the entry.
Given back: 1100 nM

###

biological target: Insulin receptor (Homo sapiens) (UniProt P06213); assay: Inhibition of IRK at 10 uM
Sequence (P06213 28-758 limits assumed): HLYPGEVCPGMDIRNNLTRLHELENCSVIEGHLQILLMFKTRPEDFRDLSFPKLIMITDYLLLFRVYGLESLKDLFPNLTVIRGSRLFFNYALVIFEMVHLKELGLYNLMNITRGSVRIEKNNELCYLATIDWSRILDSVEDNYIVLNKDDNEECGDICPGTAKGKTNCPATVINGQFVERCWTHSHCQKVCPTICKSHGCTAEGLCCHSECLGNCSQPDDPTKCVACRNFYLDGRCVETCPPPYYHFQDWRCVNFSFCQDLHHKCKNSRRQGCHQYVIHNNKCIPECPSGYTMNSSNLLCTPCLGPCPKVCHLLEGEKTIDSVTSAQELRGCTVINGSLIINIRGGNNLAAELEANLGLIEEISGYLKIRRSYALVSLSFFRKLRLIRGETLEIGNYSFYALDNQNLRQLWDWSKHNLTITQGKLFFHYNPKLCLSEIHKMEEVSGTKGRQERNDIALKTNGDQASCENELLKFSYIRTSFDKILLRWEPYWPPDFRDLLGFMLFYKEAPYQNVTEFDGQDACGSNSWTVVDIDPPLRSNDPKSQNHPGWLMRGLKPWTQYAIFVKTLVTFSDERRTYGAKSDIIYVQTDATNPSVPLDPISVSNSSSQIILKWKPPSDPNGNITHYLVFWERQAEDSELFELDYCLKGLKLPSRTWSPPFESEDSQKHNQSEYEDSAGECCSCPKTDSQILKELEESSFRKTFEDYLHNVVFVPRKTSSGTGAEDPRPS
Sequence (P06213 763-1382 limits assumed): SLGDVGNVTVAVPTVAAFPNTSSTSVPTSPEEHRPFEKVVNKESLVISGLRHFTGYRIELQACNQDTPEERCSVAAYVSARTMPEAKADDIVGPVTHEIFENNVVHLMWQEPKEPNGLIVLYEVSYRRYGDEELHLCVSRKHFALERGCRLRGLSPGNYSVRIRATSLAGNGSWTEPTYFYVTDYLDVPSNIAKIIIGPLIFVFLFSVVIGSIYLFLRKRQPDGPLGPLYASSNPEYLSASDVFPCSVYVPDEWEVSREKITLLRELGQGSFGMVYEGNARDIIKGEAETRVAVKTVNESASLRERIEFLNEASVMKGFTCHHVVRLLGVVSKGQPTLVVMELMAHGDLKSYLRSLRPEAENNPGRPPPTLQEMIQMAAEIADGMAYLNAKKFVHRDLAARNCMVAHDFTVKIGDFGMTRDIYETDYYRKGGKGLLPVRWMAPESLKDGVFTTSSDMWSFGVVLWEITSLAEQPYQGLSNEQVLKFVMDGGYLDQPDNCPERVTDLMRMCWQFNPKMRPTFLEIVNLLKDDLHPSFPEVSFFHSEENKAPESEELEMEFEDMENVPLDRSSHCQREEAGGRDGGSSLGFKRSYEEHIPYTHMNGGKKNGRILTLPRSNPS
reported-metric: inhibition (%)
Reply numerically in %, unit not repeated.

Example cases with answers are listed next.
chemical-smiles: O=c1sn(Cc2ccccc2)c(=O)n1Cc1ccccc1
reported-metric: inhibition
quantitative-readout: 19

chemical-smiles: Cn1sc(=O)n(-c2ccc(C(F)(F)F)cc2)c1=O
reported-metric: inhibition
quantitative-readout: 36

chemical-smiles: CCOC(=O)Cn1c(=O)sn(C)c1=O
reported-metric: inhibition
quantitative-readout: 50

chemical-smiles: CCn1sc(=O)n(-c2ccc([N+](=O)[O-])cc2)c1=O
reported-metric: inhibition
quantitative-readout: 46

Below: the item to evaluate.
Asked: Tell me its inhibition given Cn1sc(=O)n(Cc2ccccc2)c1=O as the entry.
Given back: 20

###

target: Glycogen synthase kinase-3 (Oryctolagus cuniculus); experiment: Inhibition of rabbit GSK3
reported-metric: IC50 (nM)
Reply numerically in nM, unit not repeated.

chemical-smiles: Cn1sc(=O)n(-c2cccc3ccccc23)c1=O
assayed-target: Glycogen synthase kinase-3 (Oryctolagus cuniculus)
IC50 (nM): 2000

Asked: Tell me its IC50 given Cn1sc(=O)n(-c2ccc(C(F)(F)F)cc2)c1=O as the entry.
Given back: 6000

Asked: Tell me its IC50 given Cn1sc(=O)n(C2CCCCC2)c1=O as the entry.
Given back: 100000

Asked: Tell me its IC50 given CCOC(=O)CN1C(=O)C=CC1=O as the entry.
Given back: 3000

Asked: Tell me its IC50 given COc1ccc(CCN2C(=O)C=CC2=O)cc1 as the entry.
Given back: 3000

Asked: Tell me its IC50 given O=C1C=CC(=O)N1CCc1ccccc1 as the entry.
Given back: 2000

###

Measured IC50 values are reported for all entries that follow.
biological target: Glycogen synthase kinase-3 (Oryctolagus cuniculus); assay: Inhibition of rabbit GSK3
Reply numerically in µM, unit not repeated.

Example cases with answers are listed next.
chemical-smiles: O=C(CN1C(=O)CSC1=S)c1ccccc1
assayed-target: Glycogen synthase kinase-3 (Oryctolagus cuniculus)
reported-metric: IC50
unit-of-measurement: µM
quantitative-readout: 50

chemical-smiles: CCCn1sc(=O)n(CC)c1=O
assayed-target: Glycogen synthase kinase-3 (Oryctolagus cuniculus)
reported-metric: IC50
unit-of-measurement: µM
quantitative-readout: 10

chemical-smiles: CCn1sc(=O)n(Cc2ccccc2)c1=O
assayed-target: Glycogen synthase kinase-3 (Oryctolagus cuniculus)
reported-metric: IC50
unit-of-measurement: µM
quantitative-readout: 7

chemical-smiles: CCn1sc(=O)n(-c2ccc([N+](=O)[O-])cc2)c1=O
assayed-target: Glycogen synthase kinase-3 (Oryctolagus cuniculus)
reported-metric: IC50
unit-of-measurement: µM
quantitative-readout: 8.5

chemical-smiles: O=c1sn(Cc2ccccc2)c(=O)n1Cc1ccccc1
assayed-target: Glycogen synthase kinase-3 (Oryctolagus cuniculus)
reported-metric: IC50
unit-of-measurement: µM
quantitative-readout: 10

chemical-smiles: CCn1c(=O)sn(C(C)C)c1=O
assayed-target: Glycogen synthase kinase-3 (Oryctolagus cuniculus)
reported-metric: IC50
unit-of-measurement: µM
quantitative-readout: 35

Below: the item to evaluate.
Asked: Tell me its IC50 given O=c1ssc(=O)n1-c1ccccc1 as the entry.
Given back: 12

###

biological target: CaM kinase II (Homo sapiens) (UniProt Q13557+Q13555+Q13554+Q9UQM7); assay: Inhibition of CAMK2 at 10 uM; format: protein assay
Measured inhibition values are reported for all entries that follow.
Reply numerically in %, unit not repeated.

Example cases with answers are listed next.
chemical-smiles: O=c1sn(Cc2ccccc2)c(=O)n1Cc1ccccc1
reported-metric: inhibition
quantitative-readout: 35
--
chemical-smiles: CCOC(=O)Cn1c(=O)sn(C)c1=O
reported-metric: inhibition
quantitative-readout: 15
--
chemical-smiles: CCn1c(=O)sn(C2CCCCC2)c1=O
reported-metric: inhibition
quantitative-readout: 23

Asked: Tell me its inhibition given Cn1sc(=O)n(Cc2ccccc2)c1=O as the entry.
Given back: 16

These entries and their values trace back to ChEMBL document CHEMBL1139464.
